ASSAY NAME: Microsomal stability assay, human
Type: in vitro ADME
ASSAY CONTEXT: metabolic stability, human liver microsomes 0.5 mg/mL, substrate 3 uM
PROPERTY LABEL: MS Human THalf (min)
# number only, unit min dropped from output

Worked set:
> print(dat)
                                   compound  property.label  value.measured
1  CN(C(=O)N1CCc2ccc(-c3ccc(C(F)(F)F)cc3)cc2C1)c1ccccc1 [IX-50]  MS Human THalf              61
2  O=C1c2cc(-c3ccc(OC(F)(F)F)cc3)ccc2SCN1Cc1ccccn1 [Compound X-1]  MS Human THalf              74

query: Given the entry O=c1c2cc(-c3ccc(OC(F)(F)F)cc3)ccc2cnn1Cc1nccc(C2CC2)n1 [III-23] , report its measured MS Human THalf.
result: 254

query: Requested read-out: MS Human THalf. Entry: O=C(NCc1ncccn1)N1CCc2ccc(-c3ccc(C(F)(F)F)cc3)cc2C1 [IX-89]
result: 125

query: For O=c1c2cc(-c3ccc(OC(F)(F)F)cc3)ccc2nnn1Cc1coc(C2CCC2)n1 [II-98] , what is its reported MS Human THalf?
result: 31
